System: S. aureus RN4220
Experiment: growth inhibition call (relative growth <= 0.2)
Conditions: 50 µM
The campaign covered roughly 39,000 compounds. About 500 (1.3%) were called active. The entries come from a sample that favours actives as a whole.
Pick one: active, inactive

Req: Write down the call the test reported for this molecule. Item: Cc1noc(C)c1NC(=O)N(C)C[C@H]1Oc2ccc(NC(=O)NC(C)C)cc2CC(=O)N([C@H](C)CO)C[C@@H]1C
Resp: inactive

Req: Lab log entry: Cc1ccc(S(=O)(=O)Nc2ccc3c(c2)C(=O)N([C@H](C)CO)C[C@@H](C)[C@H](CN(C)S(=O)(=O)c2ccc(C)cc2)OCCCC[C@H](C)O3)cc1 — outcome as called in the assay?
Resp: inactive

Req: Can you look up the reported call for CC1c2cccc(O)c2C(=O)C2=C(O)C3(O)C(=O)C(C(N)=O)=C(O)C(N(C)C)C3C(O)C21.Cl (centres undefined) for me?
Resp: inactive

Req: # lookup: test call for C[C@H]1c2cccc(O)c2C(=O)C2=C(O)[C@]3(O)C(=O)[C@@H](C(N)=O)C(=O)[C@@H](N(C)C)[C@@H]3[C@@H](O)[C@@H]21
Resp: active

----------
Test system: S. aureus RN4220
Test: growth inhibition call (relative growth <= 0.2)
Conditions: 50 µM
In all, about 39,000 compounds went through this assay and about 500 (1.3%) were called active. Only a selection was taken, and actives are over-represented in it overall.
Your response should consist of one outcome taken from class 1 for active, class 0 for inactive

Here's what some known entries look like.
[
  {
    "structure-as-smiles": "C[C@@H]1CN([C@H](C)CO)C(=O)c2cccc(NC(=O)NC3CCCCC3)c2O[C@H]1CN(C)C(=O)Nc1cccc2ccccc12",
    "category-label": "class 0"
  },
  {
    "structure-as-smiles": "C[C@@H]1CCCCO[C@H](CN(C)Cc2ccc(C(F)(F)F)cc2)[C@H](C)CN([C@@H](C)CO)C(=O)c2cc(N(C)C)ccc2O1",
    "category-label": "class 0"
  },
  {
    "structure-as-smiles": "CSc1nc(C)cc(NC(N)=O)n1",
    "category-label": "class 0"
  },
  {
    "structure-as-smiles": "O=C(CN1CCOCC1)N[C@H]1CC[C@@H](CCNC(=O)C2CCCCC2)O[C@H]1CO",
    "category-label": "class 0"
  },
  {
    "structure-as-smiles": "COc1c(C)cc(-c2cc3c(c(CCc4ccccc4)n2)[Si](C(C)C)(C(C)C)O[C@H]3c2ccccc2)cc1C",
    "category-label": "class 1"
  }
]

Req: Returns: the outcome recorded for C[C@H]1CN([C@@H](C)CO)S(=O)(=O)c2ccc(C#Cc3ccc(F)cc3)cc2O[C@H]1CN(C)C(=O)CN(C)C in this assay.
Resp: class 1

Req: Hi team, can someone confirm the assay call for CC(=O)N1[C@H](CO)[C@H](c2ccccc2)[C@H]1CNC(=O)CN1CCOCC1 ?
Resp: class 0

Req: Lab log entry: C[C@H]1CN([C@@H](C)CO)S(=O)(=O)c2ccc(C#Cc3ccccc3)cc2O[C@@H]1CN(C)C(=O)CN(C)C — outcome as called in the assay?
Resp: class 0

Req: I would be grateful if you could indicate the recorded call for C[C@@H]1CN([C@@H](C)CO)S(=O)(=O)c2ccc(C#Cc3ccc(F)cc3)cc2O[C@@H]1CN(C)C(=O)CN(C)C .
Resp: class 0

Req: Test call for this molecule, please: COc1cc(Cc2cc3c(c(CCc4ccccc4)n2)[Si](C(C)C)(C(C)C)OC3)cc(OC)c1OC
Resp: class 0

Req: Query: recorded result category for COC(=O)N/N=C/c1c[n+]([O-])c2ccccc2[n+]1[O-] in this test
Resp: class 0

Req: Returns: the outcome recorded for C[C@@H]1CN([C@H](C)CO)S(=O)(=O)c2ccc(C#Cc3ccc(F)cc3)cc2O[C@H]1CN(C)C(=O)CN(C)C in this assay.
Resp: class 0

Req: Assay outcome for C[C@H](CO)N1C[C@H](C)[C@H](CN(C)C(=O)CN(C)C)Oc2cc(C#Cc3ccc(F)cc3)ccc2S1(=O)=O : what was it?
Resp: class 0

Req: State the result this test recorded for C[C@@H]1CN([C@H](C)CO)S(=O)(=O)c2ccc(C#Cc3ccc(F)cc3)cc2O[C@@H]1CN(C)C(=O)CN(C)C .
Resp: class 0

Req: Given C[C@@H]1CN([C@@H](C)CO)C(=O)c2cccc(NS(=O)(=O)c3ccc(F)cc3)c2O[C@@H]1CN(C)S(C)(=O)=O , state the outcome it received in this test.
Resp: class 0

Req: Could you please tell me the result logged for C[C@H](CO)N1C[C@H](C)[C@@H](CN(C)C(=O)CN(C)C)Oc2cc(C#Cc3ccccc3)ccc2S1(=O)=O in this assay?
Resp: class 0

Req: Call for entry CC(=O)O[C@H]1C[C@@]2(C)[C@@H](C[C@@H](O)[C@H]3[C@@]4(C)CC[C@@H](O)[C@@H](C)[C@H]4CC[C@@]32C)C1=C(CCC=C(C)C)C(=O)O :
Resp: class 1

Req: Name the outcome recorded for C[C@@H]1CN([C@H](C)CO)S(=O)(=O)c2ccc(C#Cc3ccccc3)cc2O[C@@H]1CN(C)C(=O)CN(C)C in the assay.
Resp: class 1

----------
System: S. aureus RN4220
Assay: growth inhibition call (relative growth <= 0.2)
Conditions: 50 µM
The campaign covered roughly 39,000 compounds. About 500 (1.3%) were called active. For the sample, actives were picked, then their nearest neighbours and some compounds at random.
measurement-name: growth inhibition call

Check out these entries, answers already filled in.
[
  {
    "molecule": "CC1(C)S[C@@H]2[C@H](NC(=O)C3(N)CCCCC3)C(=O)N2[C@H]1C(=O)O",
    "measurement-name": "growth inhibition call",
    "data-value": "active"
  },
  {
    "molecule": "CC1(C)S[C@H]2[C@@H](NC(=O)[C@@H](N)c3ccccc3)C(=O)N2[C@@H]1C(=O)O",
    "measurement-name": "growth inhibition call",
    "data-value": "inactive"
  },
  {
    "molecule": "CC1(C)SC2C(NC(=O)C(N)c3ccc(O)cc3)C(=O)N2C1C(=O)O (stereo not drawn)",
    "measurement-name": "growth inhibition call",
    "data-value": "active"
  },
  {
    "molecule": "CC1(C)S[C@@H]2[C@H](NC(=O)[C@H](N)c3ccc(O)cc3)C(=O)N2[C@H]1C(=O)O",
    "measurement-name": "growth inhibition call",
    "data-value": "active"
  },
  {
    "molecule": "Nc1ccc(/C=C/C(=O)NCc2cc3cc(-c4ccc(C(=O)N5CCC(F)(F)CC5)cc4)cc(-c4ccc(F)cc4)c3o2)cn1",
    "measurement-name": "growth inhibition call",
    "data-value": "inactive"
  }
]

Req: Kindly state the measured growth inhibition call obtained for CCCCCOc1ccc([C@H]2C(C(=O)c3ccc4c(c3)OCCO4)=C(O)C(=O)N2Cc2ccco2)cc1 with S. aureus RN4220.
Resp: inactive

Req: Identify the measured growth inhibition call of Cc1noc(C)c1NC(=O)Nc1ccc2c(c1)C(=O)N([C@@H](C)CO)C[C@H](C)[C@H](CN(C)C(=O)NC1CCCCC1)OCCCC[C@H](C)O2 for S. aureus RN4220.
Resp: inactive

Req: Give recorded growth inhibition call with S. aureus RN4220 for the following molecule: O=C(O)c1ccccc1-c1c2cc(I)c(=O)c(I)c-2oc2c(I)c(O)c(I)cc12
Resp: active

----------
Tested on: S. aureus RN4220
Assay: growth inhibition call (relative growth <= 0.2)
Conditions: 50 µM
The whole screen tested about 39,000 compounds, of which about 500 (1.3%) were called active. Shown is part of a subset that was picked to be rich in actives.
Choose one outcome from this list and give only that: 1 for active, -1 for inactive

[
  {
    "structure-as-smiles": "COc1cc(Nc2nc3ccccc3nc2NS(=O)(=O)c2ccc(NC(=O)c3ccc(C)c(OC)c3)cc2)cc(OC)c1",
    "category-label": -1
  },
  {
    "structure-as-smiles": "COc1cc(F)c(F)c(Nc2ccc(I)cc2F)c1NS(=O)(=O)C1(C[C@H](O)CO)CC1",
    "category-label": 1
  },
  {
    "structure-as-smiles": "Cc1noc(C)c1NC(=O)Nc1ccc2c(c1)C(=O)N([C@H](C)CO)C[C@H](C)[C@@H](CN(C)C(=O)C1CCCCC1)OCCCC[C@@H](C)O2",
    "category-label": -1
  },
  {
    "structure-as-smiles": "Cn1c(=O)c(F)c(Nc2ccc(I)cc2F)c2c(=O)n(C[C@@H](O)CO)cnc21",
    "category-label": -1
  }
]

Consider the record given below.
Req: Each compound tested received a call. Report the one for O=C(NOC[C@H](O)CO)c1cc(Br)c(F)c(F)c1Nc1ccc(I)cc1F .
Resp: -1

Sourced from the antibiotic and cytotoxicity screens of Wong et al. (2023)
